Tested on: Staphylococcus aureus
Assay Procedure: Antibacterial activity against Staphylococcus aureus MRSA-1 assessed as bacterial growth inhibition in Mueller-Hinton broth 2 measured every 24 hrs for 5 days by serial dilution method
Format: functional
Measurement Parameters: MRSA-1, 120 h, time 5 day
Attribute Measured: MIC

These recorded examples may help you get a feel for the data.
Molecule	MIC
O=C(O)c1cn(C2CC2)c2cc(N3CCNCC3)c(F)cc2c1=O [CIPROFLOXACIN]	377 µM
C[C@@]12CC[C@@H]3[C@@](CC[C@H]4[C@@]3(C)CCC[C@@]4(C)C(=O)OCC[N+](C)(C)CCCCCCCCCCCC[N+](C)(C)CCOC(=O)[C@]3(C)CCC[C@@]4(C)[C@@H]5CC[C@@]6(C)C[C@]5(CC[C@@H]43)CC6=O)(CC1=O)C2.[Br-].[Br-]	2.8 µM
CC1(C)S[C@@H]2[C@H](NC(=O)[C@H](N)c3ccc(O)cc3)C(=O)N2[C@H]1C(=O)O [AMOXICILLIN]	85.7 µM

Now, please, on to the next molecule.
Q: Look up MIC for this molecule: C[C@@]12CC[C@@H]3[C@@](CC[C@H]4[C@@]3(C)CCC[C@@]4(C)C(=O)OCC[N+](C)(C)Cc3ccccc3)(CC1=O)C2
Result: 223 µM
